Each recorded value in this set is attributed to PubChem BioAssay (NCATS).

- testProtocol: qHTS to identify inhibitors of the type 1 interferon - major histocompatibility complex class I in skeletal muscle: primary screen against the NCATS LOPAC collection (AID 1347405);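 note: human myoblasts with HiBiT tag on endogenous HLA-B stimulated by IFN-beta; lytic HiBiT luminescence reporting HLA-B protein level; % is set by controls: 0 for no effect and ±100 for the full control effect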
- protocolConditions: iHSKM muscle cells, IFN-b-induced MHC-I HiBiT luminescence, 24 h; series mostly up to 45.9 µM
Records with an inconclusive call do not appear. The source made the active and inactive calls. Calls come from the whole dose curve; as a rule, active = well fitted inhibition curve with a large enough effect; inconclusive = small, poorly fitted or top-dose-only effect; inactive = flat fitted curve, though single readings scatter.
propertyLabel: outcome

1. C[N+](C)(C)CCOC(=O)CBr	inactive
2. C[C@H](N)CN1CCc2ccc(Br)cc21	inactive
3. CCN1C[C@@]2(COC)C3[C@@H](OC)C4[C@@H]1C3([C@@H]1C[C@]3(O)[C@H](OC(=O)c5ccccc5)[C@@H]1[C@]4(OC(C)=O)[C@@H](O)[C@@H]3OC)[C@H](OC)C[C@H]2O	inactive
4. c1ccc2cc(CC3=NCCN3)ccc2c1	inactive
5. COc1ccc(CNC(=O)/C=C/c2ccc3[nH]cc(CCN(C)C)c3c2)cc1	inactive
6. CO[C@H]1CC=C2CCN3CCC4=C(CC(=O)OC4)[C@]23C1	inactive
7. N#CCCN	inactive

* * *

- testedTarget: Voltage-gated inwardly rectifying potassium channel KCNH2 (Homo sapiens)
- testProtocol: qHTS Assay for Small Molecule Inhibitors of the Human hERG Channel Activity (AID 588834);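 note: lower thallium flux fluorescence means stronger hERG block; nearly all actives have a fitted effect of over 50% in size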
- protocolConditions: U2OS BacMam hERG, FluxOR thallium flux fluorescence; series mostly up to 46.1 µM
Results filed as inconclusive are left out. The source made the active and inactive calls. The call rests on the fitted dose curve; in most records, active means well fitted inhibition curve with a large enough effect; inconclusive means small, poorly fitted or top-dose-only effect; inactive means flat fitted curve, though single readings scatter.
Classes used: active, inactive

1) COC(=O)N1CCN(C(=O)Cc2ccc(Cl)c(Cl)c2)C(CN2CCCC2)C1 (stereo not given)	active
2) O=Cc1ccco1	inactive
3) CC(=O)c1c(O)c(C)c(O)c(Cc2c(O)c3c(c(C(=O)/C=C/c4ccccc4)c2O)OC(C)(C)C=C3)c1O	inactive
4) COc1ccc(CNC(=O)/C=C/c2ccc3[nH]cc(CCN(C)C)c3c2)cc1	active
5) C[Se]C[C@H](N)C(=O)O	inactive
6) COc1ccc2[nH]cc(CCN)c2c1	inactive
7) C/C(=C\c1csc(C)n1)[C@@H]1C[C@@H]2O[C@]2(C)CCC[C@H](C)[C@H](O)[C@@H](C)C(=O)C(C)(C)[C@@H](O)CC(=O)O1	inactive
8) CN1CCC(c2c[nH]c3ccc(O)cc23)CC1	active
9) [S]=[Sb](=[S])[S][Sb](=[S])=[S]	inactive
10) COc1cc2c(cc1OC)[C@@]13CCN4CC5=CCO[C@H]6CC(=O)N2[C@H]1[C@H]6[C@H]5C[C@H]43	inactive
11) O=C(OCCN1CCCCC1)C(O)(c1ccccc1)c1ccccc1	active
12) COc1ccc(OC)c([C@@H](O)[C@H](C)N)c1	inactive
13) CN(N=O)c1ccc(O)c(O)c1	inactive
14) O=C1CC[C@@]2(O)C3Cc4ccc(O)c5c4C2(CCN3CC2CC2)[C@H]1O5 (stereo not given in full)	active
15) CP(=O)(O)C1=CCNCC1	inactive
16) C[C@]12CC[C@H](O)C[C@H]1CC[C@@H]1[C@@H]2CC[C@]2(C)[C@@H](c3ccc(=O)oc3)C[C@H]3O[C@]132	inactive
17) C=C[C@H]1CN2CC[C@H]1C[C@@H]2[C@@H](O)c1ccnc2ccccc12	active
18) CCC1(C)CC(=O)NC(=O)C1	inactive
19) CCCn1c(C)c(C(=O)c2ccc3ccccc3c2)c2ccccc21	active
20) S=C(S)N1CCNCC1	inactive
21) CCN(CC)C(=O)/C(Cl)=C(\C)OP(=O)(OC)OC	inactive
22) COC1=CC=C2[C@H]3Cc4ccc(OC)c5c4[C@@]2(CCN3C)[C@H]1O5	inactive
23) CCOC(=O)c1ccccc1C(=O)OCC	inactive
24) CN(C)CCCCCCN(C)C (tested in a mixture with another compound)	inactive
25) C[N+]1([O-])[C@@H]2CC[C@H]1CC(OC(=O)C(CO)c1ccccc1)C2 (stereo not given in full)	inactive
26) COc1ccc(OC)c(C(O)C(C)N)c1 (stereo not given)	inactive
27) Cc1[nH]c2ccc(O)cc2c1CCN	inactive
28) CCCCCCCCOC(=O)c1ccccc1C(=O)OCCCCCCCC	inactive
29) OC[C@@H](O)[C@H]1O[C@@H]2O[C@H](C(Cl)(Cl)Cl)O[C@@H]2[C@H]1O	inactive
30) COCC(C)N(C(=O)CCl)c1c(C)csc1C (stereo not given)	inactive
31) Clc1ccc(Cl)cc1	inactive
32) NC(C(=O)O)c1cc(=O)[nH]o1 (stereo not given)	inactive
33) CC(Cc1ccccc1)NC=O (stereo not given)	inactive
34) C[N+](C)(C)CCOC(=O)CBr	inactive
35) NC(CCCCCP(=O)(O)O)C(=O)O (stereo not given)	inactive
36) CC[C@H](C)[C@H]1O[C@]2(C=C[C@@H]1C)C[C@@H]1C[C@@H](C/C=C(\C)[C@@H](O[C@H]3C[C@H](OC)[C@@H](O[C@H]4C[C@H](OC)[C@@H](O)[C@H](C)O4)[C@H](C)O3)[C@@H](C)/C=C/C=C3\CO[C@@H]4[C@H](O)C(C)=C[C@@H](C(=O)O1)[C@]34O)O2	inactive
37) C[N+]1(C)CCC(OC(=O)C(c2ccccc2)c2ccccc2)CC1	inactive
38) Cc1cccc(C(C)c2cnc[nH]2)c1C (stereo not given)	inactive
39) NC(=O)c1cc(N2CC2)c([N+](=O)[O-])cc1[N+](=O)[O-]	inactive
40) O=[N+]([O-])c1ccc2nc(N3CCNCC3)ccc2c1	inactive
41) CCCN(CCC)CCc1c[nH]c2ccc(C(N)=O)cc12	active
42) CN(C)[C@@H]1C(=O)C(C(N)=O)=C(O)[C@@]2(O)C(=O)C3=C(O)c4c(O)ccc(Cl)c4[C@@](C)(O)[C@H]3C[C@@H]12	inactive
43) COC(COC(N)=O)C1=C(N2CC2)C(=O)C(C)=C(N2CC2)C1=O (stereo not given)	inactive
44) O=P(O)(O)C(Cl)(Cl)P(=O)(O)O	inactive
45) ClC(Cl)(Cl)Cl	inactive

* * *

- testedTarget: Catechol O-methyltransferase (Homo sapiens)
- testProtocol: Confirmatory Screen for Target Class Profiling of Small Molecule Inhibitors of Methyltransferases (AID 1745852)
- protocolConditions: MTase-Glo luminescence, SAH detection, recombinant enzyme; measured here: COMT max response; stronger effect = lower value
Recorded activity values for a group of compounds are listed next.
propertyLabel: activity

1) CN1CCc2cc(O)cc3c2[C@H]1Cc1ccc(O)c(O)c1-3	-101%
2) CCCN1CCC[C@@H](c2cccc(O)c2)C1	4.08%
3) CNc1ccc2oc(C[C@H]3O[C@@]4(CC[C@H]3C)O[C@H]([C@H](C)C(=O)c3ccc[nH]3)[C@H](C)C[C@H]4C)nc2c1C(=O)O	-3.19%
4) N#C/C(=C/c1ccc(O)c(O)c1)C(N)=S	52.2%
5) CC(C)(C)c1cc(C=C(C#N)C#N)cc(C(C)(C)C)c1O	-14.8%
6) CN(N=O)c1cc(O)ccc1O	-96.7%
7) CCn1cnc2c(Nc3cccc(Cl)c3)nc(N[C@@H]3CCCC[C@@H]3N)nc21	7.4%
8) COc1ccc2[nH]c3c(c2c1)CCNC3	-6.01%
9) CCCN1CCc2cccc3c2[C@H]1Cc1ccc(O)c(O)c1-3	4.79%
10) C[C@@H]1[C@@H]2Cc3ccc(O)cc3[C@@]1(C)CCN2CC1CC1	7.89%
11) CC(N)c1cccc(Cl)c1Cl (configuration not stated)	3.38%
12) CN1CCC[C@@H]1Cc1c[nH]c2ccc(Nc3ncccc3[N+](=O)[O-])cc12	3.7%

* * *

- testedTarget: Single-stranded DNA cytosine deaminase (Homo sapiens) (UniProt Q9GZX7)
- Sequence (Q9GZX7 whole entry, looked up): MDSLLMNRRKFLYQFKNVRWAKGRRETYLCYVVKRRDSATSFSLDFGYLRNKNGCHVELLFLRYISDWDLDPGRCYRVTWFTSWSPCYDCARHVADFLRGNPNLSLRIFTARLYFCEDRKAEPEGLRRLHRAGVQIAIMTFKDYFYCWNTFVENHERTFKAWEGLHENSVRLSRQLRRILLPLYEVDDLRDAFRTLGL
- testProtocol: Validation qHTS assay for inhibitors of Activation Induced Cytidine Deaminase (AID): AID signal (AID 1347429)
- protocolConditions: Recombinant AID, FRET ssDNA deamination with UDG, fluorescence; series mostly up to 115 µM
Calls of active or inactive are those of the source. The call rests on the fitted dose curve; in most records, active means well fitted inhibition curve with a large enough effect; inconclusive means small, poorly fitted or top-dose-only effect; inactive means no such curve, though single readings can be large or run the other way.
Classes used: class 1 = active, class 0 = inactive

1. COc1ccc2c(c1)C13CCCCC1C(C2)N(C)CC3 (configuration not stated)	class 0
2. c1ccc2cc(CC3=NCCN3)ccc2c1	class 0
3. C=CCN1CCC23c4c5ccc(O)c4O[C@H]2C(=O)CC[C@@]3(O)C1C5 (some centres not stated)	class 0
4. CC(=O)c1c(O)c(C)c(O)c(Cc2c(O)c3c(c(C(=O)/C=C/c4ccccc4)c2O)OC(C)(C)C=C3)c1O	class 1
5. NC(Cc1cc(O)c(O)cc1O)C(=O)O (configuration not stated)	class 1
6. CCS(=O)(=O)Nc1cccc(C(=C2CCCCC2)c2cnc[nH]2)c1	class 0
7. Nc1ccc(CCN2CCN(c3cccc(C(F)(F)F)c3)CC2)cc1	class 0
8. CN1CC[C@@]2(C)c3cc(OC(=O)Nc4ccccc4)ccc3N(C)[C@@H]12	class 0
9. O=C(O)c1cc[c]([Hg][Cl])cc1	class 0
10. N[C@@]1(C(=O)O)CC[C@@H](C(=O)O)C1	class 0
11. C[N+](C)(C)CC#CCOC(=O)Nc1cccc(Cl)c1	class 0
12. Clc1ccc(N2CC3CCC(C2)N3)nn1	class 0
